Quick reference: GI50 of the listed items.
Tested on: CCRF-CEM
protocol-summary: Growth inhibition of human CCRF-CEM cells incubated for 48 hrs by sulforhodamine B assay
Type: functional
Don't forget the unit after the number, please.

Examples with answers:
molecule: C=C1CC[C@@H]2[C@](C)(COC(C)=O)[C@H](OC(C)=O)CC[C@@]2(C)[C@H]1CC(Nc1ccc(S(=O)(=O)Nc2ccc(Cl)nn2)cc1)C1=CCOC1=O (stereo not given in full)
measured-value: 460 nM
//
molecule: C=C1CC[C@@H]2[C@](C)(COC(C)=O)[C@H](OC(C)=O)CC[C@@]2(C)[C@H]1CC(Nc1ccc(S(=O)(=O)Nc2nccs2)cc1)C1=CCOC1=O (stereo not given in full)
measured-value: 2280 nM

Challenge: I would be grateful if you could share the reported GI50 for C=C1CC[C@@H]2[C@](C)(COC(C)=O)[C@H](OC(C)=O)CC[C@@]2(C)[C@H]1CC(Nc1ccc(S(=O)(=O)Nc2ncccn2)cc1)C1=CCOC1=O (stereo not given in full) .
Response given: 730 nM

Challenge: I would be grateful if you could share the reported GI50 for C=C1CC[C@@H]2[C@](C)(COC(C)=O)[C@H](OC(C)=O)CC[C@@]2(C)[C@H]1CC(Nc1ccc(S(=O)(=O)Nc2cc(C)on2)cc1)C1=CCOC1=O (stereo not given in full) .
Response given: 470 nM

Challenge: I would be grateful if you could share the reported GI50 for C=C1CC[C@@H]2[C@](C)(COC(C)=O)[C@H](OC(C)=O)CC[C@@]2(C)[C@H]1CC(Nc1ccc(S(=O)(=O)Nc2nccc(C)n2)cc1)C1=CCOC1=O (stereo not given in full) .
Response given: 7.3 nM

====

Tested on: OVCAR-5
protocol-summary: Growth inhibition of human OVCAR5 cells incubated for 48 hrs by sulforhodamine B assay
Format: functional
experimental-parameters: OVCAR-5, 48 h
reported-metric: LC50 (concentration causing net 50% loss of initial cells) (µM)
State just the number; it will be interpreted in µM.

Examples with answers:
compound: C=C1CC[C@@H]2[C@](C)(COC(C)=O)[C@H](OC(C)=O)CC[C@@]2(C)[C@H]1CC(Nc1ccc(S(=O)(=O)Nc2ccc(Cl)nn2)cc1)C1=CCOC1=O (stereo not given in full)
display-unit: µM
measured-value: 8.63
--
compound: C=C1CC[C@@H]2[C@](C)(COC(C)=O)[C@H](OC(C)=O)CC[C@@]2(C)[C@H]1CC(Nc1ccc(S(=O)(=O)Nc2nccs2)cc1)C1=CCOC1=O (stereo not given in full)
display-unit: µM
measured-value: 46.9
--
compound: C=C1CC[C@@H]2[C@](C)(COC(C)=O)[C@H](OC(C)=O)CC[C@@]2(C)[C@H]1CC(Nc1ccc(S(=O)(=O)Nc2cc(C)on2)cc1)C1=CCOC1=O (stereo not given in full)
display-unit: µM
measured-value: 7.61
--
compound: C=C1CC[C@@H]2[C@](C)(COC(C)=O)[C@H](OC(C)=O)CC[C@@]2(C)[C@H]1CC(Nc1ccc(S(=O)(=O)Nc2nccc(C)n2)cc1)C1=CCOC1=O (stereo not given in full)
display-unit: µM
measured-value: 42.2

Pending compound:
Challenge: I would be grateful if you could share the reported LC50 (concentration causing net 50% loss of initial cells) for C=C1CC[C@@H]2[C@](C)(COC(C)=O)[C@H](OC(C)=O)CC[C@@]2(C)[C@H]1CC(Nc1ccc(S(=O)(=O)Nc2ncccn2)cc1)C1=CCOC1=O (stereo not given in full) .
Response given: 7.47
